# System: giant foxtail (Setaria faberi)
# Procedure Details: Test G Pre-Emergence Protocol
# Assay type: in vivo
# Measurement Parameters: Setaria faberi, pre-emergence, 312 h, 250 g ai/ha, evaluated after 13 days, read-out: Foxtail, Giant damage rating (100=total damage to plant; 0=no damage to plant)
# Description: Seeds of corn (Zea mays), giant foxtail (Setaria faberi), barnyardgrass (Echinochloa crus-galli), ivy-leaved morning glory (Ipomoea hederacea), redroot pigweed (Amaranthus retroflexus) and velvetleaf (Abutilon theophrasti) were sown in standard soil in pots. […]
Measured pest or weed control at 250 g/ha of individual entries
Recorded Endpoint: pest or weed control at 250 g/ha (%)

# Compound, Target, Recorded Measurement
data = [
    ("CC1OC(=O)c2c(NC(=O)[C@H]3C(=O)N(C)C[C@@H]3c3ccc(C(F)(F)F)cc3)cccc21 (mixture of isomers)", "giant foxtail (Setaria faberi)", 50),
    ("COc1c(Cl)cccc1NC(=O)[C@H]1C(=O)N(C)C[C@@H]1c1ccc(C(F)(F)F)cc1 (racemic)", "giant foxtail (Setaria faberi)", 60),
    ("CN1C[C@@H](c2ccc(C(F)(F)F)cc2)[C@H](C(=O)Nc2ncnn2C)C1=O (racemic)", "giant foxtail (Setaria faberi)", 0),
    ("COc1c(Cl)ccc([C@H]2CNC(=O)[C@@H]2C(=O)Nc2cccc(F)c2F)c1F (racemic)", "giant foxtail (Setaria faberi)", 80),
]

---

# Test system: pigweed (Amaranthus retroflexus)
# Procedure Details: Test A preemergence
# Assay type: in vivo
# Measurement Parameters: 125 g ai/ha, preemergence; 0 to 100 scale (0 no effect, 100 complete control)
Measured Plant response rating, Pigweed of individual entries
Recorded Endpoint: Plant response rating, Pigweed

# Compound, Target, Recorded Endpoint, Recorded Measurement
rows = [
    ("COc1ccc(NC(=O)C2C(=O)NCC2c2ccc(F)c(F)c2)c(F)c1 (stereo not shown)", "pigweed (Amaranthus retroflexus)", "Plant response rating, Pigweed", 0),
    ("O=C1NCC(c2ccccc2-c2ccccc2)C1C(=O)Nc1cccc(F)c1F (racemic)", "pigweed (Amaranthus retroflexus)", "Plant response rating, Pigweed", 0),
    ("COc1ccc(NC(=O)C2C(=O)NCC2c2cccc(OC(F)F)c2)c(F)c1 (stereo not shown)", "pigweed (Amaranthus retroflexus)", "Plant response rating, Pigweed", 0),
    ("CN1CC(c2ccc(C(F)(F)F)c(F)c2)C(C(=O)Nc2cccc(F)c2F)C1=O (stereo not shown)", "pigweed (Amaranthus retroflexus)", "Plant response rating, Pigweed", 90),
    ("CN1CC(c2ccc3c(c2)OC(F)(F)O3)C(C(=O)Nc2ccccc2S(C)(=O)=O)C1=O (stereo not shown)", "pigweed (Amaranthus retroflexus)", "Plant response rating, Pigweed", 80),
    ("O=C1NCC(c2cccc(OCC(F)F)c2)C1C(=O)Nc1cccc(F)c1F (stereo not shown)", "pigweed (Amaranthus retroflexus)", "Plant response rating, Pigweed", 0),
    ("Cc1cccc(NC(=O)C2C(=O)NCC2c2cccc(OC(F)F)c2)c1F (stereo not shown)", "pigweed (Amaranthus retroflexus)", "Plant response rating, Pigweed", 0),
    ("Nc1cccc(C2CNC(=O)C2C(=O)Nc2cccc(F)c2F)c1 (stereo not shown)", "pigweed (Amaranthus retroflexus)", "Plant response rating, Pigweed", 0),
    ("CN1CC(c2ccc3c(c2)OC(F)(F)O3)C(C(=O)Nc2cccc(F)c2F)C1=O (stereo not shown)", "pigweed (Amaranthus retroflexus)", "Plant response rating, Pigweed", 70),
    ("Cc1c(F)ccc(NC(=O)C2C(=O)NCC2c2cccc(C(F)(F)F)c2)c1F (stereo not shown)", "pigweed (Amaranthus retroflexus)", "Plant response rating, Pigweed", 0),
]
